ASSAY_NAME: protein stability index of a GFP-peptide fusion (GPS, HEK-293T) (PSI 1-6); higher = more stable;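 note: 24-mer peptide tiles fused after GFP, lentivirally expressed, FACS-sorted into six equal bins by GFP/DsRed ratio, decoded by Illumina sequencing, PSI is the read-weighted mean bin number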
TEST_CONTEXT: treatment: DMSO; c terminus: a fixed tail appended
READOUT_TYPE: protein stability index
The answer should be written as a number, with no unit following it.

Some solved entries appear below for comparison.
{"SEQUENCE_RECORD": "GMPPAGTGMPMMPQQPVMFAQPMM [SNAP91]", "DATA_VALUE": 3.03}
{"SEQUENCE_RECORD": "KQIYNLIHLDPRTREGFTLLHLAV [FEM1B]", "DATA_VALUE": 2.66}
{"SEQUENCE_RECORD": "IPLLSSVNVSDRGGRTALHHAALN [ANKRD44]", "DATA_VALUE": 3.42}
{"SEQUENCE_RECORD": "LLLLSKAKLVPSEREASPSNSCQD [IKZF1]", "DATA_VALUE": 3.31}
{"SEQUENCE_RECORD": "EIIPINVNNNYEHRHTSHLGHAVL [SPRY1]", "DATA_VALUE": 2.34}

# input Give its protein stability index value. Item: VYDNEKKLQLQLNETKSQAFVSNS [PLD5]
# output 4.48

# input Lookup MPAATVDHSQRICEVWACNLDEEM [CNOT7]
# output 4.65

# input # repeat for PPYSRLSPRDEYKPLDLSDSTLSY [SMAD6]
# output 3.89

# input Repeat for the following sequence: GPPSRGGHMDDGGYSMNFNMSSSR [RBMX]
# output 4.25

# input Likewise for NIHENKRTGSLFKIWLVVPSLLEL [KLHDC10] ?
# output 3.16

# input Again, but for GQTPLAVSISISGSSRPCLDFLQE [ASB7]
# output 2.83

Data provenance is the supplement of paper PMC10567573.
